All figures here come from paper PMC6348381.

Molecular target: TAF1 (Homo sapiens, UniProt P21675)
Sequence (P21675 1522-1656): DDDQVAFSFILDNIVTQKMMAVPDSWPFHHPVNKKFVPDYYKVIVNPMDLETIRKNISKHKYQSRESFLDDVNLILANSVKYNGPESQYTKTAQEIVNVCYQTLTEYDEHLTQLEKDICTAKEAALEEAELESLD
MEASURE_NAME: IC50

# CHEMICAL_STRUCTURE, VAL
rows = [
    ("C[C@H]1CCCN1Cc1nc2cc(NC(=O)c3ccc4c(cnn4C)c3)ccc2[nH]1", "> 10 µM"),
]

###

Biological target: MLLT1 YD (Homo sapiens)
Sequence (Q03111 1-138 limits assumed): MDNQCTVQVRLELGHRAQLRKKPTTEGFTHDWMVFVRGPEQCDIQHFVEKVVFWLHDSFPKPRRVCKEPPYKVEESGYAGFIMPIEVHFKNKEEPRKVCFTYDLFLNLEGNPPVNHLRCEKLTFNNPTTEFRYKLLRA
pIC50: −log10 of the molar value.

# COMPOUND, MEASUREMENT_QUALIFIER, pIC50
rows = [
    ("C[C@@H]1CCC[C@H](C)N1Cc1nc2cc(NC(=O)c3ccc(Cl)cc3)ccc2[nH]1", "<", 4.70),
    ("Cn1ncc2cc(C(=O)Nc3ccc4[nH]c(CN5CCCCC5)nc4c3)ccc21", "=", 5.80),
    ("CC(c1nc2cc(NC(=O)c3ccc(Cl)cc3)ccc2[nH]1)N1CCCCC1 (centres unmarked)", "<", 4.70),
    ("O=C(Nc1ccc2[nH]c(CN3CCCCC3)nc2c1)c1cccc(OC(F)(F)F)c1", "<", 4.70),
    ("O=C(Nc1ccc2[nH]c(CN3CCCCC3)nc2c1)c1ccc(-n2ccnc2)cc1", "=", 6.00),
    ("CC1CCCN1Cc1nc2cc(NC(=O)c3ccc(Cl)cc3)ccc2[nH]1 (centres unmarked)", "=", 6.48),
    ("CC1CCN(Cc2nc3cc(NC(=O)c4ccc5c(cnn5C)c4)ccc3[nH]2)C1 (centres unmarked) [Compound 90]", "=", 6.14),
    ("O=C(Nc1ccc2[nH]c(CN3CCCCC3)nc2c1)c1ccccc1Cl", "<", 4.70),
    ("CC1CCN(Cc2nc3cc(NC(=O)c4ccc5c(cnn5C)c4)ccc3[nH]2)C1 (centres unmarked) [Compound 89]", "=", 6.22),
    ("Cc1ccc(C(=O)Nc2ccc3[nH]c(CN4CCCCC4)nc3c2)cc1C", "=", 5.26),
    ("COc1ccccc1C(=O)Nc1ccc2[nH]c(CN3CCCCC3)nc2c1", "<", 4.70),
]
